Ref: patent US6525001B1

tested on: lambsquarters (Chenopodium album); experiment: Test C; type: in vivo; set-up: key: 0 was no effect; 100 was complete control; details: PREEMERGENCE, Rate 140 g/ha
measurement name: Plant response rating, Lambsquarters

[[record]]
molecule = "Cc1cnc(-n2ccc(C(F)(F)F)n2)nc1C(=O)c1cccc(OC(F)(F)F)c1 [Compound 66]"
endpoint_value = 100

[[record]]
molecule = "Cc1cnc(-c2ccc(C(F)(F)F)cc2)nc1C(Cl)c1cccc(C(F)(F)F)c1 (racemic) [Compound 21]"
endpoint_value = 90

[[record]]
molecule = "CCc1cnc(-n2ccc(C(F)(F)F)n2)nc1Cc1cccc(C(F)(F)F)c1 [Compound 46]"
endpoint_value = 100

[[record]]
molecule = "Cc1cnc(-n2ccc(C(F)(F)F)n2)nc1Cc1cccc(C(F)(F)F)c1 [Example 2]"
endpoint_value = 100

[[record]]
molecule = "COc1cnc(-c2ccc(C(F)(F)F)cc2)nc1Cc1cccc(C(F)(F)F)c1 [Compound 23]"
endpoint_value = 100

[[record]]
molecule = "Cc1cnc(-n2ccc(C(F)(F)F)n2)nc1Cc1cccc(OC(F)(F)F)c1 [Compound 42]"
endpoint_value = 100


---

test system: soybean (Glycine max); assay: Test B pre-/postemergence; assay type: in vivo; settings: Rate 62 g/ha, Preemergence
measurement name: Soybean plant response rating

[[record]]
smiles_text = "Cc1cnc(-c2ccc(C(F)(F)F)cc2)nc1Cn1ccc(C(F)(F)F)n1"
endpoint_value = 1

[[record]]
smiles_text = "Cc1cnc(-c2ccccc2F)nc1Cc1cccc(C#N)c1"
endpoint_value = 0

[[record]]
smiles_text = "CCc1cnc(-n2ccc(C(F)(F)F)n2)nc1Cc1cccc(OC(F)(F)F)c1"
endpoint_value = 0

[[record]]
smiles_text = "Cc1cnc(-c2ccc(Cl)c(Cl)c2)nc1Cc1cccc(C(F)(F)F)c1"
endpoint_value = 0

[[record]]
smiles_text = "CCc1cnc(-n2cnc(C(F)(F)F)n2)nc1Cc1cccc(OC(F)(F)F)c1"
endpoint_value = 1

[[record]]
smiles_text = "Cc1cnc(-c2ccc(C(F)(F)F)cc2)nc1Cn1cnc(C(F)(F)F)n1"
endpoint_value = 1

[[record]]
smiles_text = "CCc1cnc(-c2ccc(C(F)(F)F)cc2)nc1Cc1cccc(C(F)(F)F)c1"
endpoint_value = 1

[[record]]
smiles_text = "Cc1cnc(-c2cccc(C(F)(F)F)c2)nc1Cc1cccc(C(F)(F)F)c1"
endpoint_value = 0

[[record]]
smiles_text = "Cc1cnc(-n2cnc(C(F)(F)F)n2)nc1Cc1cccc(C(F)(F)F)c1"
endpoint_value = 1

[[record]]
smiles_text = "Cc1cnc(-c2ccc(Cl)cc2)nc1Cc1cccc(C#N)c1"
endpoint_value = 0

[[record]]
smiles_text = "CCc1cnc(-n2cnc(C(F)(F)F)c2)nc1Cc1cccc(OC(F)(F)F)c1"
endpoint_value = 0

[[record]]
smiles_text = "Cc1cnc(-c2ccc(C(F)(F)F)cc2)nc1Cc1cccc(OC(F)(F)F)c1"
endpoint_value = 0

[[record]]
smiles_text = "Cc1cnc(-c2ccccc2F)nc1Cc1cccc(C(F)(F)F)c1"
endpoint_value = 0

[[record]]
smiles_text = "Cc1cnc(-n2cnc(C(F)(F)F)n2)nc1Cn1ccc(C(F)(F)F)n1"
endpoint_value = 9

[[record]]
smiles_text = "Cc1cnc(-c2ccc(C(F)(F)F)cc2)nc1Cn1nc(C(F)(F)F)cc1C"
endpoint_value = 1

[[record]]
smiles_text = "Cc1cnc(-c2ccc(OC(F)(F)F)cc2)nc1Cc1cccc(C(F)(F)F)c1"
endpoint_value = 0

[[record]]
smiles_text = "Cc1cnc(-c2ccc(C(F)(F)F)cc2)nc1Cn1ccc(C(F)(F)C(F)(F)F)n1"
endpoint_value = 0

[[record]]
smiles_text = "Cc1cnc(-c2ccc(Cl)cc2F)nc1Cc1cccc(C#N)c1"
endpoint_value = 0

